# assay-target: T1, recombinant human ASM protein (human, UniProt P17405 47-630)
# T1 construct: Recombinant human ASM in solution; also called acid sphingomyelinase (ASM) protein
# T1 sequence: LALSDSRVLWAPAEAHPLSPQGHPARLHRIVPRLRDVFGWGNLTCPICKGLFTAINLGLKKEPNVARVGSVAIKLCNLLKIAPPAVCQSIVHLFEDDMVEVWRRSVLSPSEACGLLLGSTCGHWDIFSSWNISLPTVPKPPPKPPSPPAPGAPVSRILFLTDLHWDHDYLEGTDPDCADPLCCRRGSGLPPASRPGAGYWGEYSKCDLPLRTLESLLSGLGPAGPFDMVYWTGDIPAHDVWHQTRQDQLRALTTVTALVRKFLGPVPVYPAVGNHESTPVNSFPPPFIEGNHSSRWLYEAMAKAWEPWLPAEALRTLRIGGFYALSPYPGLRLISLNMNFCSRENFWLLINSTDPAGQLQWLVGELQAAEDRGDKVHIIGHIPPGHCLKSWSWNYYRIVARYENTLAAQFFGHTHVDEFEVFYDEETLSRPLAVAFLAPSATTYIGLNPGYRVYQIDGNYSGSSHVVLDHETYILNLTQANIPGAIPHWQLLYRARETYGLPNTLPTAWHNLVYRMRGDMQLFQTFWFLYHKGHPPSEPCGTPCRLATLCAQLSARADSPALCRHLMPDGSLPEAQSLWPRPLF
# assay-procedure: BLI (Octet), antibody on AHC sensor
Attribute: koff

{"columns": ["binder", "koff / s⁻¹"],
 "data": [
  ["#9104v-L49 (antibody, human IgG4 S228P, lambda, V domains shown, Full-length IgG, lambda) VH: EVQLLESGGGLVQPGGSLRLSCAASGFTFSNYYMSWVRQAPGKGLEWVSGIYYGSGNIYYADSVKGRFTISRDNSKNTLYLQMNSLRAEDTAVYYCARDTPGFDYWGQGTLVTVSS VL: QSVLTQPPSASGTPGQRVTISCTGSSSNIGNNAVNWYQQLPGTAPKLLIYYDTFRPTGVPDRFSGSKSGTSASLAISGLRSEDEADYYCGAWDYSLSAYVFGGGTKLTVLG", 0.000225],
  ["#9104v-L46 (antibody, human IgG4 S228P, lambda, V domains shown, Full-length IgG, lambda) VH: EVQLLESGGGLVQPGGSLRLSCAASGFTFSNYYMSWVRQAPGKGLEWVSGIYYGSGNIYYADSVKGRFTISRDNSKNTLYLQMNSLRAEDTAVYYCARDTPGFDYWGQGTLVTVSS VL: QSVLTQPPSASGTPGQRVTISCTGSSSNIGNNAVNWYQQLPGTAPKLLIYYDSYRSWGVPDRFSGSKSGTSASLAISGLRSEDEADYYCGAWDYSLSAYVFGGGTKLTVLG", 0.000258],
  ["#9104v-L37 (antibody, human IgG4 S228P, lambda, V domains shown, Full-length IgG, lambda) VH: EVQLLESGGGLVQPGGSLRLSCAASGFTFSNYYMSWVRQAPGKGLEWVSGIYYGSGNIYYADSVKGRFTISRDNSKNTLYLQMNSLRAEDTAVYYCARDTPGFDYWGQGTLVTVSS VL: QSVLTQPPSASGTPGQRVTISCTGSSSNIGNNAVNWYQQLPGTAPKLLIYYDSYRASGVPDRFSGSKSGTSASLAISGLRSEDEADYYCGAWDYSLSAYVFGGGTKLTVLG", 0.000327]
]}
